tested on: Metabolism protein genes; assay: DNA chip mRNA expression in yeast, metabolism protein genes (Table 7); assay type: cell-based, Saccharomyces cerevisiae S288C; conditions: yeast gene YKR034W
Classify by measured level of expressed mRNA in the presence/in the absence of chemical substance: rule met if it is equal to or exceeds 0.9, rule not met if it is smaller.

Study these solved cases before continuing.
compound="CCCCCCCCCCCCc1ccc(S(=O)(=O)[O-])cc1.[Na+] [(17), sodium dodecylbenzosulfonate]" assigned_label="rule not met"
compound="C[S+](C)[O-] [(15), dimethylsulfoxide]" assigned_label="rule met"
compound="CCCCCCCCCCCCOS(=O)(=O)[O-].[Na+] [(18), sodium lauryl sulfate]" assigned_label="rule met"

Consider the additional compound presented here.
Please indicate if the recorded level of expressed mRNA in the presence/in the absence of chemical substance for COc1cc(CNC(=O)CCCCC=CC(C)C)ccc1O [(12), 8-methyl-N-vanillyl-6-nonenamide] meets or exceeds 0.9.
rule not met

====

test system: Metabolism protein genes; test: DNA chip mRNA expression in yeast, metabolism protein genes (Table 7); format: cell-based, Saccharomyces cerevisiae S288C; details: yeast gene YML022W
Readout: level of expressed mRNA in the presence/in the absence of chemical substance
// keep it numeric: no unit symbol after the value

compound="O=[N+]([O-])c1cc[n+]([O-])c2ccccc12 [(5), 4-nitroquinolin-N-oxide]" value_reported=1.3
compound="COc1cc(CNC(=O)CCCCC=CC(C)C)ccc1O [(12), 8-methyl-N-vanillyl-6-nonenamide]" value_reported=0.6

Briefly, level of expressed mRNA in the presence/in the absence of chemical substance measured for CN(C)C(=S)SSC(=S)N(C)C [(10), Tetramethylthiuram disulfide] : 0.6

Briefly, level of expressed mRNA in the presence/in the absence of chemical substance measured for C[S+](C)[O-] [(15), dimethylsulfoxide] : 0.6

Briefly, level of expressed mRNA in the presence/in the absence of chemical substance measured for C=CC=O [(14), acrolein] : 0.9

Briefly, level of expressed mRNA in the presence/in the absence of chemical substance measured for CCCCCCCCCCCCc1ccc(S(=O)(=O)[O-])cc1.[Na+] [(17), sodium dodecylbenzosulfonate] : 0.5

====

system: Metabolism protein genes; assay: DNA chip mRNA expression in yeast, metabolism protein genes (Table 7); format: cell-based, Saccharomyces cerevisiae S288C; details: yeast gene YMR261C
Mark 1 only for level of expressed mRNA in the presence/in the absence of chemical substance values smaller than 1; exact matches and larger values are 0.

Study these solved cases before continuing.
molecule="C[S+](C)[O-] [(15), dimethylsulfoxide]" assigned_label=1
molecule="COc1cc(CNC(=O)CCCCC=CC(C)C)ccc1O [(12), 8-methyl-N-vanillyl-6-nonenamide]" assigned_label=1
molecule="CCCCCCCCCCCCOS(=O)(=O)[O-].[Na+] [(18), sodium lauryl sulfate]" assigned_label=0
molecule=Cl[C@H]1[C@H](Cl)[C@@H](Cl)[C@@H](Cl)[C@H](Cl)[C@H]1Cl assigned_label=0

Is level of expressed mRNA in the presence/in the absence of chemical substance of O=[N+]([O-])c1cc[n+]([O-])c2ccccc12 [(5), 4-nitroquinolin-N-oxide] strictly below 1?
1

Is level of expressed mRNA in the presence/in the absence of chemical substance of [Cl][Hg][Cl] strictly below 1?
0

Is level of expressed mRNA in the presence/in the absence of chemical substance of N#Cc1c(Cl)c(Cl)c(Cl)c(C#N)c1Cl strictly below 1?
0

====

# level of expressed mRNA in the presence/in the absence of chemical substance values compiled below
tested on: Metabolism protein genes; experiment: DNA chip mRNA expression in yeast, metabolism protein genes (Table 7); format: cell-based, Saccharomyces cerevisiae S288C; settings: yeast gene YLR044C

molecule=[Cl][Cd][Cl] value_reported=0.6
molecule=Cl[C@H]1[C@H](Cl)[C@@H](Cl)[C@@H](Cl)[C@H](Cl)[C@H]1Cl value_reported=1.3

Briefly, level of expressed mRNA in the presence/in the absence of chemical substance measured for S=C([S-])NCCNC(=S)[S-].[Zn+2] [(11), zinc N,N′-ethylenebis(dithiocarbamate)] : 1.1

Briefly, level of expressed mRNA in the presence/in the absence of chemical substance measured for [Cl][Pb][Cl] : 0.9

Briefly, level of expressed mRNA in the presence/in the absence of chemical substance measured for Oc1cc(Cl)c(Cl)cc1Cl : 1.5

====

Test system: Metabolism protein genes
Test: DNA chip mRNA expression in yeast, metabolism protein genes (Table 7)
Format: cell-based, Saccharomyces cerevisiae S288C
Conditions: yeast gene YOL086C
Protocol: Yeast (Saccharomyces cerevisiae S288C (α SUC2mal mel gap2 CUP1)) were incubated at 25° C. on YPD medium (yeast extract 1%, polypepton 2%, glucose 2%). One of toxic chemical substances was added to the cells at logarithmic growth phase, and the cells were further incubated for two hours. Cells were cultured without any chemical substance in the same condition, and were used as control. Concentrations of the chemical substances were defined to inhibit the growth of the yeast but not lead to death. […]
Classify by measured level of expressed mRNA in the presence/in the absence of chemical substance: class 1 if it is equal to or exceeds 1, class 0 if it is smaller.

Study these solved cases before continuing.
molecule=C=CC=O assigned_label="class 0"
molecule="O=[N+]([O-])c1cc[n+]([O-])c2ccccc12 [(5), 4-nitroquinolin-N-oxide]" assigned_label="class 1"
molecule=[Cl][Pb][Cl] assigned_label="class 1"
molecule="CN(C)C(=S)SSC(=S)N(C)C [(10), Tetramethylthiuram disulfide]" assigned_label="class 1"
molecule="S=C([S-])NCCNC(=S)[S-].[Zn+2] [(11), zinc N,N′-ethylenebis(dithiocarbamate)]" assigned_label="class 1"

Please indicate if the recorded level of expressed mRNA in the presence/in the absence of chemical substance for C[S+](C)[O-] [(15), dimethylsulfoxide] meets or exceeds 1.
class 1

Please indicate if the recorded level of expressed mRNA in the presence/in the absence of chemical substance for Cl[C@H]1[C@H](Cl)[C@@H](Cl)[C@@H](Cl)[C@H](Cl)[C@H]1Cl meets or exceeds 1.
class 1

Please indicate if the recorded level of expressed mRNA in the presence/in the absence of chemical substance for N#Cc1c(Cl)c(Cl)c(Cl)c(C#N)c1Cl meets or exceeds 1.
class 0

====

Test system: Metabolism protein genes
Experiment: DNA chip mRNA expression in yeast, metabolism protein genes (Table 7)
Type: cell-based, Saccharomyces cerevisiae S288C
Settings: yeast gene YER081W
Protocol: Yeast (Saccharomyces cerevisiae S288C (α SUC2mal mel gap2 CUP1)) were incubated at 25° C. on YPD medium (yeast extract 1%, polypepton 2%, glucose 2%). One of toxic chemical substances was added to the cells at logarithmic growth phase, and the cells were further incubated for two hours. Cells were cultured without any chemical substance in the same condition, and were used as control. Concentrations of the chemical substances were defined to inhibit the growth of the yeast but not lead to death. […]
# level of expressed mRNA in the presence/in the absence of chemical substance values compiled below
// keep it numeric: no unit symbol after the value

compound="COc1cc(CNC(=O)CCCCC=CC(C)C)ccc1O [(12), 8-methyl-N-vanillyl-6-nonenamide]" value_reported=1.0
compound="C=CC=O [(14), acrolein]" value_reported=1.6
compound="[Cl][Hg][Cl] [(3), HgCl2]" value_reported=2.7
compound="C[S+](C)[O-] [(15), dimethylsulfoxide]" value_reported=0.5

Briefly, level of expressed mRNA in the presence/in the absence of chemical substance measured for N#Cc1c(Cl)c(Cl)c(Cl)c(C#N)c1Cl [(9)] : 1.8

Briefly, level of expressed mRNA in the presence/in the absence of chemical substance measured for Oc1cc(Cl)c(Cl)cc1Cl [(6), 2,4,5-trichlorophenol] : 1.1

====

# level of expressed mRNA in the presence/in the absence of chemical substance values compiled below
test system: Metabolism protein genes; test: DNA chip mRNA expression in yeast, metabolism protein genes (Table 7); format: cell-based, Saccharomyces cerevisiae S288C; conditions: yeast gene YOR108W
// keep it numeric: no unit symbol after the value

molecule="CCCCCCCCCCCCOS(=O)(=O)[O-].[Na+] [(18), sodium lauryl sulfate]" assay_system="Metabolism protein genes" value_reported=1.1
molecule=[Cl][Hg][Cl] assay_system="Metabolism protein genes" value_reported=2.3
molecule="CCCCCCCCCCCCc1ccc(S(=O)(=O)[O-])cc1.[Na+] [(17), sodium dodecylbenzosulfonate]" assay_system="Metabolism protein genes" value_reported=1.1

# input for lookup
Briefly, level of expressed mRNA in the presence/in the absence of chemical substance measured for N#Cc1c(Cl)c(Cl)c(Cl)c(C#N)c1Cl : 0.4

====

tested on: Metabolism protein genes; assay: DNA chip mRNA expression in yeast, metabolism protein genes (Table 7); type: cell-based, Saccharomyces cerevisiae S288C; conditions: yeast gene YFL011W
# level of expressed mRNA in the presence/in the absence of chemical substance values compiled below
// keep it numeric: no unit symbol after the value

Worked set:
compound="C[S+](C)[O-] [(15), dimethylsulfoxide]" value_reported=1.7
compound=Cl[C@H]1[C@H](Cl)[C@@H](Cl)[C@@H](Cl)[C@H](Cl)[C@H]1Cl value_reported=0.8

Briefly, level of expressed mRNA in the presence/in the absence of chemical substance measured for S=C([S-])NCCNC(=S)[S-].[Zn+2] [(11), zinc N,N′-ethylenebis(dithiocarbamate)] : 2.1

Briefly, level of expressed mRNA in the presence/in the absence of chemical substance measured for CCCCCCCCCCCCc1ccc(S(=O)(=O)[O-])cc1.[Na+] [(17), sodium dodecylbenzosulfonate] : 0.8

Briefly, level of expressed mRNA in the presence/in the absence of chemical substance measured for [Cl][Pb][Cl] : 3.3
